Reference source for all entries: patent US20260193366A1

# target system: T1, hIL-4Rα on cells (human, UniProt P24394 26-825)
# T1 sequence: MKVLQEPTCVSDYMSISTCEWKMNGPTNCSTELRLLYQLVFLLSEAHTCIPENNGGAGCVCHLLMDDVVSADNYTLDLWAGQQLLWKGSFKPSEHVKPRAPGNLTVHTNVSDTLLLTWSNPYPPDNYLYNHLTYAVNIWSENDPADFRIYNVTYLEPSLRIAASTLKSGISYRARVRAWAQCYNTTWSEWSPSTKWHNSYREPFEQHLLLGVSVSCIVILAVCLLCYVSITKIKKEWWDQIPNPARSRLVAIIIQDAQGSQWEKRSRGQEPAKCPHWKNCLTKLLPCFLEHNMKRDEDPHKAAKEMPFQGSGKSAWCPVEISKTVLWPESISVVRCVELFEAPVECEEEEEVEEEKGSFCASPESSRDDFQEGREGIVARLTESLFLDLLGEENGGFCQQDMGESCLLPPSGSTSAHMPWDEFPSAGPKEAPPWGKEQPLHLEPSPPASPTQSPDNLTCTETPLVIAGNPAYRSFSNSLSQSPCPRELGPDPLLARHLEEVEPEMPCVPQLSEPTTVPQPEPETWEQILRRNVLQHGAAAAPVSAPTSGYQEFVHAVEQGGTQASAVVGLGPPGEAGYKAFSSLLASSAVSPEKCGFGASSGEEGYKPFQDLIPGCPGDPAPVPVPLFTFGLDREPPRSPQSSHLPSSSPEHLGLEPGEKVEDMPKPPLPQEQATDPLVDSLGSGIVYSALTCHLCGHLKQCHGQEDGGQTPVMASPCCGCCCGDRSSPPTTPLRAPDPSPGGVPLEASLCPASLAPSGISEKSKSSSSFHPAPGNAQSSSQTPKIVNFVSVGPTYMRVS
# assay overview: cell-based or functional assay
For each entry below, report its Relative Inhibition of IL-4 induced pSTAT6 IC50 value.

These recorded examples may help you get a feel for the data.
>>> value_observed("Construct 44 (mAb485) (antibody, IgG4, V domains shown, VH/VL only) VH: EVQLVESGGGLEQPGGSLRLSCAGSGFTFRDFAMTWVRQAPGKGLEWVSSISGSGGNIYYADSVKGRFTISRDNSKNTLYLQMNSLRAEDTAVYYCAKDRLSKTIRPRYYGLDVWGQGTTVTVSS VL: DIVMTQSPLSLPVTPGEPASISCRSTQSLLYSIGKNYVDWYLQKSGQSPQLLIYEGNNRASGVPDRFSGSGSGTDFTLKISRVEAEDVGFYYCMQSLTSPYTFGQGTKLEIK")
"1.18 relative to dupilumab"
>>> value_observed("Construct 41 (mAb478) (antibody, IgG4, V domains shown, VH/VL only) VH: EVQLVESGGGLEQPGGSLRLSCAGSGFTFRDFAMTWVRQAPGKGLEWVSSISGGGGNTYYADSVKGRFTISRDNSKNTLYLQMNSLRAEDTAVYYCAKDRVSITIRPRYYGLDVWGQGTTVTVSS VL: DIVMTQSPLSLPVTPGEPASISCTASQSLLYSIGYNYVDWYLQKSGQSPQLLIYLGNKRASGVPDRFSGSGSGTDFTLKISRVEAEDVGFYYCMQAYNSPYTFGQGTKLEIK")
"1.18 relative to dupilumab"
>>> value_observed("Construct 25 (mAb433) (antibody, IgG4, V domains shown, VH/VL only) VH: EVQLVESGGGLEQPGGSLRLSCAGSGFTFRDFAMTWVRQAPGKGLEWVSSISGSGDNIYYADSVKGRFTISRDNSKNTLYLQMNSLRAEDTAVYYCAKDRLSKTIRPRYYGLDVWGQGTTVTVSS VL: DIVMTQSPLSLPVTPGEPASISCTASQSLLYSIGYNYLDWYLQKSGQSPQLLIYEGNKRASGVPDRFSGSGSGTDFTLKISRVEAEDVGFYYCMQSLTSPYTFGQGTKLEIK")
"1.33 relative to dupilumab"
>>> value_observed("Construct 39 (mAb473) (antibody, IgG4, V domains shown, VH/VL only) VH: EVQLVESGGGLEQPGGSLRLSCAGSGFTFRDSAMTWVRQAPGKGLEWVSSISGSGDNTYYADSVKGRFTISRDNSKNTLYLQMNSLRAEDTAVYYCAKDRLSITVRPRYYGLDVWGQGTTVTVSS VL: DIVMTQSPLSLPVTPGEPASISCRSSQSLLYSIGKNYVDWYLQKSGQSPQLLIYLGNKRASGVPDRFSGSGSGTDFTLKISRVEAEDVGFYYCMQALGSPYTFGQGTKLEIK")
"0.81 relative to dupilumab"

Your task in this section: give Relative Inhibition of IL-4 induced pSTAT6 IC50 for each listed record.
1. Construct 3 (mAb412) (antibody, IgG4, V domains shown, VH/VL only) VH: EVQLVESGGGLEQPGGSLRLSCAGSGFTFRDFAMTWVRQAPGKGLEWVSSISGSGSSTYYADSVKGRFTISRDNSKNTLYLQMNSLRAEDTAVYYCAKDRLSITVRPRYYGLDVWGQGTTVTVSS VL: DIVMTQSPLSLPVTPGEPASISCRSSQSLLYSIGYNYVDWYLQKSGQSPQLLIYLGNKRASGVPDRFSGSGSGTDFTLKISRVEAEDVGFYYCMQALTTPYTFGQGTKLEIK
2. Construct 1 (mAb410) (antibody, IgG4, V domains shown, VH/VL only) VH: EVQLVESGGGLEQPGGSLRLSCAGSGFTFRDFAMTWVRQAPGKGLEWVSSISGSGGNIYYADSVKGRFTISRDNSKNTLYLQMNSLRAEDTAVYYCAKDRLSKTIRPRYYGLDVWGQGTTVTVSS VL: DIVMTQSPLSLPVTPGEPASISCRSSQSVLYSIGYNYVDWYLQKSGQSPQLLIYLGSKRASGVPDRFSGSGSGTDFTLKISRVEAEDVGFYYCMQSLDTPYTFGQGTKLEIK
3. Construct 45 (mAb494) (antibody, IgG4, V domains shown, VH/VL only) VH: EVQLVESGGGLEQPGGSLRLSCAGSGFTFRDFAMTWVRQAPGKGLEWVSSISGSGDGTYYADSVKGRFTISRDNSKNTLYLQMNSLRAEDTAVYYCAKDRVSITIRPRYYGLDVWGQGTTVTVSS VL: DIVMTQSPLSLPVTPGEPASISCTASQSLLYSIGYNYVDWYLQKSGQSPQLLIYLGNNRATGVPDRFSGSGSGTDFTLKISRVEAEDVGFYYCMQSLQTPYTFGQGTKLEIK
4. Construct 2 (mAb411) (antibody, IgG4, V domains shown, VH/VL only) VH: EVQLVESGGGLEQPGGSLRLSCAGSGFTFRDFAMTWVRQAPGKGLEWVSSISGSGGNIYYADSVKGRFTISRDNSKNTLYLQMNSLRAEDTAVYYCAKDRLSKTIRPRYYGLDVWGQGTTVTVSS VL: DIVMTQSPLSLPVTPGEPASISCTASQSLLYSIGYNYVDWYLQKSGQSPQLLIYLGSKRASGVPDRFSGSGSGTDFTLKISRVEAEDVGFYYCMQALTTPYTFGQGTKLEIK
5. Construct 20 (mAb428) (antibody, IgG4, V domains shown, VH/VL only) VH: EVQLVESGGGLEQPGGSLRLSCAGSGFTFRDFAMTWVRQAPGKGLEWVSSISGSGDNTYYADSVKGRFTISRDNSKNTLYLQMNSLRAEDTAVYYCAKDRLSITVRPRYYGLDVWGQGTTVTVSS VL: DIVMTQSPLSLPVTPGEPASISCTSSQSLLYSIGYNYVDWYLQKSGQSPQLLIYLGNKRASGVPDRFSGSGSGTDFTLKISRVEAEDVGFYYCMQSLQTPYVFGQGTKLEIK
6. Construct 23 (mAb431) (antibody, V domains shown, VH/VL only) VH: EVQLVESGGGLEQPGGSLRLSCAGSGFTFRDFAMTWVRQAPGKGLEWVSSISGGGGSTYYADSVKGRFTISRDNSKNTLYLQMNSLRAEDTAVYYCAKDRLSVTVRPRYYGLDVWGQGTTVTVSS VL: DIVMTQSPLSLPVTPGEPASISCRSSQSVLYSIGKNYVDWYLQKSGQSPQLLIYLGSQRATGVPDRFSGSGSGTDFTLKISRVEAEDVGFYYCMQSLTSPYTFGQGTKLEIK

A.
0.767 relative to dupilumab
0.592 relative to dupilumab
1.25 relative to dupilumab
0.507 relative to dupilumab
1.28 relative to dupilumab
0.483 relative to dupilumab
